- target or test system: T1, cynomolgus monkey D1D2-human D3 chimeric GPVI-human Fc fusion protein (GPVI-FFH-hFc) (cynomolgus monkey (D1, D2) and human …)
- T1 construct: also called Monkey GPVI
- T1 sequence (chain, as listed by the source mutant limits assumed): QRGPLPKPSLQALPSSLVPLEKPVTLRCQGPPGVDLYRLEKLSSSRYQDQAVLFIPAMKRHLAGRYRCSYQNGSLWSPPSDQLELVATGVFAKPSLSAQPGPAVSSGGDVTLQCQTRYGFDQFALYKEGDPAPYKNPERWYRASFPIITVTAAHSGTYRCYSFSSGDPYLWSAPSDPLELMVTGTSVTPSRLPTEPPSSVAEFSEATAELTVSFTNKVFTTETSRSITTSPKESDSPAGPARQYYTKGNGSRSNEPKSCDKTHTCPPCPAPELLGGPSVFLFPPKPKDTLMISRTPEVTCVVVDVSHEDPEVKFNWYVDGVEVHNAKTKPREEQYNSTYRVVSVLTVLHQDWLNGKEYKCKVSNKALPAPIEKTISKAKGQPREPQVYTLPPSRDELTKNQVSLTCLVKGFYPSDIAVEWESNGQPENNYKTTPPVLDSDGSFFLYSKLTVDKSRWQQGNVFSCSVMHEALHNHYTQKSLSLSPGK
- experiment summary: SPR (BIACORE3000), GPVI-Fc on CM5 chip, antibody 1.25-40 nM as analyte, bivalent analyte fit
property name: pKd
Convention used: pKd is expressed as -log10 of the molar concentration.

q: If you can, please state the reported pKd value of F1232-18-3 (antibody, V domains shown, Mouse hybridoma monoclonal antibody) VH: VMLVESGGGLVKPGGSLKLSCAASGFTFSSYAMSWVRQTPEKRLEWVATISSGGSYTYYPDSVKGRFTISRDNAKNTLYLQMSSLRSADTAMYYCARDYGYFDYWGQGTTLTVSS VL: DIVLTQSPASLAVSLGQRATISCRASESVDNYGISFMHWYQQKPGQPPKLLFYRASNLESGIPARFSGSGSRTDFTLTINPVETDDVATYYCQQSNTDPRTFGGGTKLEIKR .
a: 6.44

q: Now this one: F1232-37-2 (antibody, V domains shown, Mouse hybridoma monoclonal antibody; also called F1232-37-2 antibody; F1232-37-2 whole antibody) VH: VQLQQSGPELVRPGESVKISCKGSGYTFTDYAIHWVKLSHAKSLEWIGVISIYYDDTNYNQKFKGKATMTVDKSSSTAYLELARLTSEDSAIYYCARRRDSSGPYAMDYWGQGTSVTVSS VL: DIVLTQSPASLAVSLGQRATISCRASESVDSYGNSFMHWYQQKPGQPPKLLIYRASNLESGIPARFSGSGSRTDFTLTINPVEADDVATYYCQQSNEDPYTFGGGTKLEIKR
a: 9.00

q: Now this one: F1232-24-1 (antibody, V domains shown, Mouse hybridoma monoclonal antibody) VH: VQLQQSGAELVRPGVSVKISCKGSGYTFTDYAMHWVKQSHAKSLEWIGVISTYYGDASYNQKFKGKATMTVDKSSSTAYMELARLTSEDSAIYYCARSYDYDPWFAYWGQGTLVTVSA VL: DIVLTQSPASLAVSLGQRATISCRASESVDNYGISFMHWYQQKPGQPPKLLIYRASNLESGIPARFSGSGSRTDFTLTINPVETDDVATYYCQQSNKDPLTFGAGTKLELKR
a: 9.15
